Source: the supplement of paper PMC9732359

test: protein stability index of a GFP-peptide fusion (yeast GPS) (PSI 1-4); higher = more stable; sorted into four equal gates, so the index is relative within each strain; settings: doa10∆
Label Condition met when protein stability index is at or above 3; anything below gets Condition not met.

Answered cases to consult:
1) PDAKIQVRRDIPSAAFN [YMR129W/POM152] ... Condition not met
2) KDMKLLRYYKNIWLNNK [NUT1] ... Condition not met
3) VDINRLKKGEVSLGTSI [PRE3] ... Condition not met
4) SKAPAEKKPAAKKTSTS [HTB1] ... Condition met
5) LPGTEKGRKTNKYANND [CSL4] ... Condition met
6) NVSSNIVKNAEQHNLVK [RPS20] ... Condition not met
7) SMSLQSKNLGEINTALN [SWI1] ... Condition not met
8) GTLDINPDDDYGFKQEI [FAS1] ... Condition met

In the following, a different sequence is considered.
Asked: Please check the record TEGEPKKKRGFLGLFGR [SRP68] and state if its protein stability index is at or above 3.
Given back: Condition met

###

Quick list: protein stability index per entry.
assay: protein stability index of a GFP-peptide fusion (yeast GPS) (PSI 1-4); higher = more stable; sorted into four equal gates, so the index is relative within each strain; conditions: ubr1∆

Asked: Name the recorded protein stability index for ESGEFDFDLFKEVLPDL [YJL039C/NUP192] .
Given back: 3.23

Asked: What value of protein stability index has been recorded for this entry: NYIYAGYENGMLAQWDL [RPN14]
Given back: 3.14

###

assay: protein stability index of a GFP-peptide fusion (yeast GPS) (PSI 1-4); higher = more stable; sorted into four equal gates, so the index is relative within each strain; details: pdr5∆
QUANTITY MEASURED: protein stability index
Just the number, please, no unit after it.

Use the examples below as a reference point.
1) ISFLEPINLKFLQGESP [YMR129W/POM152] ... 2.94
2) TDLESKSRMINFLDAPG [SNU114] ... 2.95
3) CSNPTCGAGVFLANHKD [RPS31] ... 2.82

Asked: What value of measured protein stability index is listed for MFDAFVSFYFEDGTIES [SIN4] ?
Given back: 2.76

Asked: I am curious: what protein stability index value has been reported for GFSPTSPTYSPTSPAYS [RPO21] ?
Given back: 2.74

Asked: protein stability index for DFLLSDWNKRFSHLAGG [BRR2] ?
Given back: 2.82

Asked: Any idea what its protein stability index is? The sequence is TQVRVEFLEDTSRTIVR [RPS28A]
Given back: 3.06

Asked: Entry ENFAKGEHISAIVPGQS [SWP82] has what protein stability index?
Given back: 3.18

Asked: # protein stability index lookup, item YDLVDNKGAKAEDVALN [NAS6]
Given back: 3.39

Asked: Please look up its protein stability index: ADILCPLLESFITFSLD [IRR1]
Given back: 2.32

Asked: Which protein stability index is reported for this sequence? SSNKDLEDEKMKFQESL [SMC4]
Given back: 2.08

Asked: What does the record list as protein stability index for KKKTTLEDFENFKGLAK [YIL149C/MLP2] ?
Given back: 2.99

Asked: Param item = LADYIVEVLLVNYNSDM [NUT1] ; retrieve measured protein stability index.
Given back: 1.35

Asked: Item under review: STPENVPRLFDLVKPKN [SMC4] . Reported protein stability index?
Given back: 3.11

Asked: Look up protein stability index: QELELPGEFVTAIAHSI [SNF5]
Given back: 2.37

Asked: Look up protein stability index for this sequence: LSRPSLPKIKTVRKSIA [RPL35A]
Given back: 1.94

Asked: protein stability index for EKRYDDKLLDFIRYDVK [CSN12] ?
Given back: 3.25

Asked: Report protein stability index for IYISNLVRSIIAFDDLI [RPN8] please.
Given back: 1.36

Asked: Give the measured protein stability index of SVLKDSDDKTRQLSPHT [PRE1] .
Given back: 2.72

Asked: Please give the measured protein stability index for this sequence: LVETCLNDLVESSFIEI [BRR2]
Given back: 2.75
